Assay: Oral bioavailability in rats, Method B (plasma and brain PK)
Format: in vivo, Sprague Dawley rats
Details: male, Sprague Dawley; rat brain, Method B, 1 mg/kg po; read-out: t1/2 (po)
observation type: half-life (min)
Give bare numbers, in min.

>>> test_value("CN[C@@]1(c2ccc(F)cc2)CCCCC1=O")
59.4

Now for another entry.
Please fill in: half-life reported for N[C@]1(c2ccc(F)cc2)CCCCC1=O = 427

* * *

Assay: Oral bioavailability in mice, Method B (plasma and brain PK)
Type: in vivo, C57BL/6 mice
Conditions: male, C57BL/6; mouse brain, Method B, 1 mg/kg po; read-out: t1/2 (po)
observation type: half-life (min)
Give bare numbers, in min.

Reference set (2 entries):
>>> test_value("CN[C@]1(c2ccc(F)cc2)CCCCC1=O")
42
>>> test_value("CN[C@@]1(c2ccc(F)cc2)CCCCC1=O")
36

Continue with the molecule presented below.
Data point: N[C@]1(c2cccc(F)c2)CCCCC1=O ; half-life = 40.8

* * *

Test: Metabolic stability in dog liver microsomes (DLM)
Type: in vitro ADME, beagle dogs
Conditions: male, beagle, dog, pooled dog liver microsomes, pH 7.4, 1 μM compound, 0.50 mg protein/mL, NADPH
Kindly supply the reported microsomal CLint at 1 μM values for the records listed here.
Answers are plain numbers, in µL/min/mg.

Count: 2. Required value per item: microsomal CLint at 1 μM.
1. CNC1(c2ccccc2Cl)CCCCC1=O (racemic) [racemic ketamine, ketamine]
2. CN[C@@]1(c2ccc(F)cc2)CCCCC1=O [Compound 2R]

Solution:
1. 589
2. 35.8

I need microsomal CLint at 1 μM for every entry listed below, if you could help.
1. CN[C@]1(c2ccc(F)cc2)CCCCC1=O [Compound 2S]
2. N[C@@]1(c2cccc(F)c2)CCCCC1=O [Compound 3R]
3. N[C@]1(c2cccc(F)c2)CCCCC1=O [Compound 3S]

Solution:
76
34.6
26.8

* * *

Please provide measured AUC(0-inf) for the entries that follow.
Assay: Oral bioavailability in mice, Method B (plasma and brain PK)
Type: in vivo, C57BL/6 mice
Conditions: male, C57BL/6; mouse plasma, Method B, 1 mg/kg iv; values represent AUC0-last; read-out: AUC0-inf (iv) (converted)
One number for each entry, in ng·h/mL.

Example entries and their recorded answers appear below.
>>> test_value("CN[C@]1(c2ccc(F)cc2)CCCCC1=O")
119
>>> test_value("CN[C@@]1(c2ccc(F)cc2)CCCCC1=O")
96.3
>>> test_value("N[C@]1(c2cccc(F)c2)CCCCC1=O")
608

Let's switch to this compound now.
The recorded AUC(0-inf) for N[C@]1(c2ccc(F)cc2)CCCCC1=O is 501

* * *

Experiment: Comparative metabolism/PK of 2R and deuterated 7R in rats after oral administration
Assay type: in vivo, Sprague Dawley rats
Conditions: male, Sprague Dawley, rat, plasma, oral, 10 mg/kg, rat plasma, 0.083 h after 10 mg/kg po of 2R or 7R; read-out: Mean plasma concentration
observation type: concentration at 0.083 h (ng/mL)
Numbers only, in ng/mL.

>>> test_value("[2H]C([2H])([2H])N[C@@]1(c2ccc(F)cc2)CCCCC1=O")
65
>>> test_value("N[C@@]1(c2ccc(F)cc2)CCCCC1=O")
31

--- query ---
Summary for this compound, CN[C@@]1(c2ccc(F)cc2)CCCCC1=O : concentration at 0.083 h is 37
